The reported measurements were obtained from the supplement of paper PMC10065799.

Target: SHP2-C SH2;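 also: peptide library displayed on the E. coli surface as eCPX fusions, selected cells deep-sequenced, score is each peptide's frequency after selection divided by its frequency in the input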
Test: SH2 binding enrichment of the phosphorylated peptide, bacterial display (enrichment ratio); higher = better substrate or ligand; peptides without Tyr show the background
measurement_name: SH2 binding enrichment

Solved cases (3 shown):
FSNVLYRPRGP [TMIGD2_Y197_A202P_YF] :: 0.794
LIGRGYDDPEV [HSPA9_Y128_R127G] :: 0.635
KMLEKYKERLN [TLK2_Y259] :: 0.641

a. GRRGQYVMLSE [TTC7A_Y396]
b. QNTGYYYDLYG [PTPN11_Y62_D61Y]
[in] Which value of SH2 binding enrichment is numerically greater: that of a or that of b ? Select an item and report its label.
[out] b
(b: 2.18, a: 0.673)

###

Biological target: Fes (UniProt P07332)
Sequence (P07332 whole entry, looked up): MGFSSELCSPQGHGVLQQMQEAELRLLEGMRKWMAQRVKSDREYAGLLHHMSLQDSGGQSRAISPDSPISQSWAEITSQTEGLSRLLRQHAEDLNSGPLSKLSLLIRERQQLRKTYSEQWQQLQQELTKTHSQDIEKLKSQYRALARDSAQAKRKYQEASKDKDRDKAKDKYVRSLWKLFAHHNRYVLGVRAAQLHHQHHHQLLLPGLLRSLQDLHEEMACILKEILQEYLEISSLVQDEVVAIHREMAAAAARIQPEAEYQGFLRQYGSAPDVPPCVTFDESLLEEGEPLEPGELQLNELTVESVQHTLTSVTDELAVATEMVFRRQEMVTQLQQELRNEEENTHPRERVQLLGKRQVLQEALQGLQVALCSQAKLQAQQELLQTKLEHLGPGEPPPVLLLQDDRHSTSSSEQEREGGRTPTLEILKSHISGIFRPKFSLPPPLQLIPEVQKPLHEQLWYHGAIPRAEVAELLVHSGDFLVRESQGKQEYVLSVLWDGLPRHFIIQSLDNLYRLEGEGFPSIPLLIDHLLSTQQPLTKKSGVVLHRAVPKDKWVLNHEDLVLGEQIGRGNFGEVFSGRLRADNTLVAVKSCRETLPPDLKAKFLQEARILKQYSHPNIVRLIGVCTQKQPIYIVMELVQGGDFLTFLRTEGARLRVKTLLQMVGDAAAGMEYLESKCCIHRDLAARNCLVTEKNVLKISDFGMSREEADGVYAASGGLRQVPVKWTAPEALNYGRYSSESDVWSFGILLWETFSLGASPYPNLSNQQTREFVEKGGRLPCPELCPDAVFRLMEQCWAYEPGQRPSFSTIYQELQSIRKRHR
Test: phosphorylation enrichment, bacterial display (enrichment ratio); higher = better substrate or ligand; peptides without Tyr show the background
measurement_name: phosphorylation enrichment
Reply: number alone, nothing else.

Solved cases (4 shown):
EKAEVYRSENE [RIOK2_Y348_G349R] :: 1.08
KATKGYLDDPT [G6PD_Y322_E317K] :: 0.639
VGGRIYTDDGL [PKLR_Y218_I219T] :: 0.921
ALIKAYVKAVA [SMN1_Y43_D44V] :: 0.995

The measured phosphorylation enrichment associated with FKIFLYTLNDN [FN1_Y1975_YF] reads 1.35

The measured phosphorylation enrichment associated with QKFMAYLSQGG [HLCS_Y236] reads 0.745

The measured phosphorylation enrichment associated with AISEGYKDFRA [CDA_Y79_V75I] reads 0.638

The measured phosphorylation enrichment associated with QMVRMYASSYM [AVPR2_Y124_G122R] reads 1.28

The measured phosphorylation enrichment associated with TVNIRYLLFPS [SERAC1_Y548_S543T] reads 1.21

###

Test system: Fer (mouse)
Test: phosphorylation enrichment, bacterial display (enrichment ratio); higher = better substrate or ligand; peptides without Tyr show the background
measurement_name: phosphorylation enrichment
Reply: number alone, nothing else.

Solved cases (5 shown):
HLDRSYSFSFS [PEAR1_Y890_R885H_YF] :: 0.999
QITQVYGFFHE [PPP2CA_Y127_D131H_YF] :: 0.72
EKAEVYRSENE [RIOK2_Y348_G349R] :: 0.466
PRQRRYVFFFS [PTEN_Y174_S170R_YF] :: 0.555
EAVLHYKHQNQ [MTOR_Y1804] :: 0.492

Log: Fer (mouse), sequence KDIENYIQDGK [RAD50_Y964] , phosphorylation enrichment = 0.416

Log: Fer (mouse), sequence IRRSSYEDSSL [HNF4A_Y144_T139I] , phosphorylation enrichment = 0.526

Log: Fer (mouse), sequence EKMWSYMKSAE [GRIA3_Y705] , phosphorylation enrichment = 0.398

Log: Fer (mouse), sequence TVETKYDNISR [SETDB2_Y477] , phosphorylation enrichment = 0.433

Log: Fer (mouse), sequence RPFRPYIIRGM [LRP5_Y1531_YF] , phosphorylation enrichment = 0.456

###

Tested on: c-Abl (mouse)
Test: phosphorylation enrichment, bacterial display (enrichment ratio); higher = better substrate or ligand; peptides without Tyr show the background
Measured phosphorylation enrichment, listed per entry for reference.
Reply: number alone, nothing else.

Solved cases (2 shown):
KLKRSYPSPDI [USP8_Y717_S718P] :: 0.547
PDMHSYMVRYN [GRIN2D_Y732] :: 1.02

Below: the item to evaluate.
The measured phosphorylation enrichment associated with PVDNLYAEPAV [PRPS1_Y146] reads 8.54
